Reference source for all entries: ChEMBL document CHEMBL3593156

# EXPERIMENTAL_PROTOCOL: Selectivity index, ratio of TC50 for MDCK cells to IC50 for Influenza A virus (A/FM/1/47(H1N1))-induced cytopathic effect in MDCK cells
# Type: toxicity, cell-based
# EXPERIMENTAL_PARAMETERS: dog, read-out: Selectivity Index
Entries whose selectivity ratio is below 8 take true (1); entries at or above 8 take false (0).

Reference set, count: 5
>>> qualitative_label("CCOC(=O)/C=C/c1ccc(O)c(O)c1 [ETHYL CAFFEATE]")
"true (1)"
>>> qualitative_label("CC1=C2C[C@H]3[C@@]4(CO4)[C@H](O)C=C[C@]3(C)C[C@@H]2OC1=O")
"true (1)"
>>> qualitative_label("C=C1C(=O)O[C@H]2C[C@H](C)C(C=O)=CC[C@H]12")
"true (1)"
>>> qualitative_label("CCOC(=O)C1=C[C@@H](OC(CC)CC)[C@H](NC(C)=O)[C@@H](N)C1 [OSELTAMIVIR]")
"false (0)"
>>> qualitative_label("C=C1C(=O)O[C@@H]2C=C(CCC(C)=O)[C@@H](C)CC[C@@H]12")
"true (1)"

# evaluate next
Query: In the record for COc1cc(C(O)C(CO)Oc2ccc(C(=O)O)cc2OC)ccc1O (stereo unspecified) , is selectivity ratio less than 8?
Response: false (0)

----------
# EXPERIMENTAL_PROTOCOL: Selectivity index, ratio of TC50 for African green monkey Vero cells to IC50 for Coxsackievirus B3-induced cytopathic effect in African green monkey Vero cells
# Type: toxicity, cell-based
# EXPERIMENTAL_PARAMETERS: read-out: Selectivity Index
So I've got a bunch of molecules here, and I need their selectivity ratio values.
One number for each entry.

>>> numeric_value("CCOC(=O)c1ccc(O)c(O)c1")
2.1

Below are 3 molecules. Give each one its selectivity ratio.
1. C=C1C(=O)O[C@@H]2C=C(CCC(C)=O)[C@@H](C)CC[C@@H]12
2. Cc1cc(CCCOc2c(C)cc(-c3noc(C(F)(F)F)n3)cc2C)on1 [PLECONARIL]
3. NC(=O)c1ncn([C@@H]2O[C@H](CO)[C@@H](O)[C@H]2O)n1 [RIBAVIRIN]

Response:
[3, 16200, 6.8]

// for each molecule in input: emit selectivity ratio
1. C=C1C(=O)O[C@H]2C[C@H](C)C(C=O)=CC[C@H]12
2. CC(=O)CCC1=CC[C@H]2[C@H](C[C@@H]1C)OC(=O)[C@@H]2C
3. CC1=C2C[C@H]3[C@@]4(CO4)[C@H](O)C=C[C@]3(C)C[C@@H]2OC1=O

Response:
3.6
12.1
3.6

----------
# EXPERIMENTAL_PROTOCOL: Antiinflammatory activity in C57BL6/J mouse BV2 cells assessed as inhibition of LPS-induced nitric oxide production after 24 hrs by Griess assay
# Assay type: functional, cell-based
# EXPERIMENTAL_PARAMETERS: BV-2, 24 h
pIC50: −log10 of the molar value.
MEASUREMENT_KIND: pIC50

Here is how some molecules turned out for pIC50.
>>> result("CC(=C/C(=O)O)/C=C/[C@]1(O)[C@@]2(C)CO[C@]1(C)C[C@@H](O)C2")
"< 5.00"
>>> result("COc1cc(C(O)C(CO)Oc2ccc(C(=O)O)cc2OC)ccc1O (stereo not drawn)")
"< 5.00"

Sure, the documented pIC50 for C[C@H]1C[C@@H]2OC(=O)[C@H](C)[C@H]2CC=C1C(=O)O is < 5.00
